Every entry's value here was drawn from patent US6703347B2.

# mortality (score) Hv annotations
Tested on: tobacco budworms (Heliothis virescens)
assayInfo: pesticidal test against tobacco budworms
measurementSetup: liquid composition containing 500 ppm by weight of compound
readoutLabel: mortality (score) Hv

CCOCN(C(=O)C(C)c1ccc2oc(CC(F)(F)F)nc2c1)c1snc(C)c1Cl (stereo not shown); 9 (9 indicates 80-100% mortality)
CCc1nsc(NC(=O)C(C)c2ccc3sc(CC(C)(C)C)nc3c2)c1Cl (stereo not shown); 9 (9 indicates 80-100% mortality)
CCOCN(C(=O)C(F)c1ccc2oc(CC(C)(C)C)nc2c1)c1snc(C)c1Cl (stereo not shown); 5 (5 indicates 40-79% mortality)
CCc1nsc(NC(=O)C(OC)c2ccc3oc(CC(C)C)nc3c2)c1Cl (stereo not shown); 9 (9 indicates 80-100% mortality)

----------
# mortality (score) Hv annotations
Test system: tobacco budworms (Heliothis virescens)
assayInfo: pesticidal test against tobacco budworms
measurementSetup: liquid composition containing 500 ppm by weight of compound
readoutLabel: mortality (score) Hv

Cc1nsc(NC(=O)C(C)(F)c2ccc3oc(CC(C)(C)C)nc3c2)c1Cl (stereo not drawn) [Table 6 Compound 7]; 9 (9 indicates 80-100% mortality)
Cc1nsc(NC(=O)C(F)c2ccc3oc(C(F)(F)C(F)(F)C(F)(F)F)nc3c2)c1Cl (stereo not drawn) [Table 5 Compound 10]; 9 (9 indicates 80-100% mortality)
CCOCN(C(=O)C(C)c1ccc2oc(CC(C)(C)C)nc2c1)c1snc(CC)c1Cl (stereo not drawn) [Table 1 Compound 157]; 9 (9 indicates 80-100% mortality)
CCOCN(C(=O)C(C)c1ccc2oc(CC(C)(C)C)nc2c1)c1snc(C)c1Cl (stereo not drawn) [Table 1 Compound 77]; 9 (9 indicates 80-100% mortality)
CCC(C(=O)Nc1snc(C)c1Cl)c1ccc2oc(C(F)(F)C(F)(F)C(F)(F)F)nc2c1 (stereo not drawn) [Table 2 Compound 10]; 9 (9 indicates 80-100% mortality)
CCOCN(C(=O)C(F)c1ccc2oc(CC(C)(C)C)nc2c1)c1snc(CC)c1Cl (stereo not drawn) [Table 5 Compound 157]; 9 (9 indicates 80-100% mortality)
CCc1nsc(NC(=O)C(F)c2ccc3oc(CC(C)C)nc3c2)c1Cl (stereo not drawn) [Table 5 Compound 86]; 9 (9 indicates 80-100% mortality)
Cc1nsc(NC(=O)C(C)c2ccc3oc(CC(F)(F)F)nc3c2)c1Cl (stereo not drawn) [Table 1 Compound 8]; 9 (9 indicates 80-100% mortality)
CCOCN(C(=O)/C=C/c1ccc2oc(CC(C)(C)C)nc2c1)c1snc(C)c1Cl [Table 81 Compound 77]; 0 (represents less than 40% mortality)
CCOCN(C(=O)C(C)c1ccc2sc(CC(C)C)nc2c1)c1snc(CC)c1Cl (stereo not drawn) [Table 39 Compound 156]; 9 (9 indicates 80-100% mortality)
Cc1nsc(NC(=O)C(CC#N)c2ccc3oc(CC(C)(C)C)nc3c2)c1Cl (stereo not drawn) [Table 20 Compound 7]; 0 (represents less than 40% mortality)
CCc1nsc(NC(=O)C(F)c2ccc3sc(CC(C)(C)C)nc3c2)c1Cl (stereo not drawn) [Table 42 Compound 87]; 9 (9 indicates 80-100% mortality)
CCOCN(C(=O)C(C)c1ccc2sc(CC(C)(C)C)nc2c1)c1snc(CC)c1Cl (stereo not drawn) [Table 39 Compound 157]; 9 (9 indicates 80-100% mortality)
CCc1nsc(NC(=O)C(F)c2ccc3oc(CC(C)(C)C)nc3c2)c1Cl (stereo not drawn) [Table 5 Compound 87]; 9 (9 indicates 80-100% mortality)
CC(=O)OCC(C(=O)Nc1snc(C)c1Cl)c1ccc2oc(CC(C)(C)C)nc2c1 (stereo not drawn) [Table 28 Compound 7]; 9 (9 indicates 80-100% mortality)
CCc1nsc(NC(=O)C(CC)c2ccc3oc(C(F)(F)C(F)(F)C(F)(F)F)nc3c2)c1Cl (stereo not drawn) [Table 2 Compound 90]; 9 (9 indicates 80-100% mortality)
CCc1nsc(NC(=O)C(C)c2ccc3sc(CC(C)C)nc3c2)c1Cl (stereo not drawn) [Table 39 Compound 86]; 9 (9 indicates 80-100% mortality)
CCOCN(C(=O)C(C)c1ccc2oc(C(F)(F)C(F)(F)C(F)(F)F)nc2c1)c1snc(C)c1Cl (stereo not drawn) [Table 1 Compound 80]; 9 (9 indicates 80-100% mortality)
CCOCN(C(=O)CCc1ccc2oc(CC(C)(C)C)nc2c1)c1snc(C)c1Cl [Table 82 Compound 77]; 0 (represents less than 40% mortality)
CCOCN(C(=O)C(C)c1ccc2oc(CC(C)C)nc2c1)c1snc(C)c1Cl (stereo not drawn) [Table 1 Compound 76]; 5 (5 indicates 40-79% mortality)
Cc1nsc(NC(=O)C(F)c2ccc3sc(CC(C)(C)C)nc3c2)c1Cl (stereo not drawn) [Table 42 Compound 7]; 9 (9 indicates 80-100% mortality)

----------
System: diamond back moth (Plutella xylostella)
assayInfo: pesticidal test against diamond back moth
measurementSetup: liquid composition containing 500 ppm by weight of compound
readoutLabel: mortality (score) Px

Cc1nsc(NC(=O)C(O)c2ccc3oc(CC(C)(C)C)nc3c2)c1Cl (centres unmarked) [Table 7 Compound 7]; 9 (9 indicates 80-100% mortality)
Cc1nsc(NC(=O)C(F)c2ccc3sc(CC(C)(C)C)nc3c2)c1Cl (centres unmarked) [Table 42 Compound 7]; 5 (5 indicates 40-79% mortality)
CCc1nsc(NC(=O)C(C)c2ccc3oc(CC(F)(F)F)nc3c2)c1Cl (centres unmarked) [Table 1 Compound 88]; 9 (9 indicates 80-100% mortality)
Cc1nsc(NC(=O)C(F)c2ccc3oc(CC(C)C)nc3c2)c1Cl (centres unmarked) [Table 5 Compound 6]; 9 (9 indicates 80-100% mortality)
CCc1nsc(NC(=O)C(C)c2ccc3oc(CC(C)C)nc3c2)c1Cl (centres unmarked) [Table 1 Compound 86]; 9 (9 indicates 80-100% mortality)

----------
System: fruit flies (Drosophila melanogaster)
assayInfo: pesticidal test against fruit flies
measurementSetup: liquid composition containing 500 ppm by weight of compound
readoutLabel: mortality (score) Dm

Cc1nsc(NC(=O)C(F)c2ccc3oc(C(F)(F)C(F)(F)C(F)(F)F)nc3c2)c1Cl (stereo not shown) [Table 5 Compound 10]; 9 (9 indicates 80-100% mortality)
Cc1nsc(NC(=O)C(=CO)c2ccc3oc(CC(C)(C)C)nc3c2)c1Cl [Table 12 Compound 7]; 0 (represents less than 40% mortality)
Cc1nsc(NC(=O)C(F)c2ccc3oc(CC(C)C)nc3c2)c1Cl (stereo not shown) [Table 5 Compound 6]; 9 (9 indicates 80-100% mortality)
CCC(C(=O)Nc1snc(C)c1Cl)c1ccc2oc(C(F)(F)C(F)(F)C(F)(F)F)nc2c1 (stereo not shown) [Table 2 Compound 10]; 0 (represents less than 40% mortality)
CCOCN(C(=O)C(C)c1ccc2oc(C(F)(F)C(F)(F)C(F)(F)F)nc2c1)c1snc(C)c1Cl (stereo not shown) [Table 1 Compound 80]; 0 (represents less than 40% mortality)
CCc1nsc(NC(=O)C(C)c2ccc3oc(C(F)(F)C(F)(F)C(F)(F)F)nc3c2)c1Cl (stereo not shown) [Table 1 Compound 90]; 0 (represents less than 40% mortality)
CCc1nsc(NC(=O)C(C)c2ccc3sc(CC(C)(C)C)nc3c2)c1Cl (stereo not shown) [Table 39 Compound 87]; 0 (represents less than 40% mortality)
CCc1nsc(NC(=O)C(F)c2ccc3oc(CC(C)C)nc3c2)c1Cl (stereo not shown) [Table 5 Compound 86]; 9 (9 indicates 80-100% mortality)
CCc1nsc(NC(=O)C(C)c2ccc3oc(CC(F)(F)F)nc3c2)c1Cl (stereo not shown) [Table 1 Compound 88]; 0 (represents less than 40% mortality)
Cc1nsc(NC(=O)C(C)c2ccc3oc(CC(C)C)nc3c2)c1Cl (stereo not shown) [Table 1 Compound 6]; 0 (represents less than 40% mortality)
CCc1nsc(NC(=O)C(C)c2ccc3sc(CC(C)C)nc3c2)c1Cl (stereo not shown) [Table 39 Compound 86]; 0 (represents less than 40% mortality)
CC(=O)OCC(C(=O)Nc1snc(C)c1Cl)c1ccc2oc(CC(C)(C)C)nc2c1 (stereo not shown) [Table 28 Compound 7]; 0 (represents less than 40% mortality)
CCOCN(C(=O)C(C)c1ccc2oc(C(F)(F)C(F)(F)F)nc2c1)c1snc(CC)c1Cl (stereo not shown) [Table 1 Compound 159]; 9 (9 indicates 80-100% mortality)
CCOCN(C(=O)C(C)c1ccc2oc(CC(C)(C)C)nc2c1)c1snc(C)c1Cl (stereo not shown) [Table 1 Compound 77]; 0 (represents less than 40% mortality)
Cc1nsc(NC(=O)C(C)c2ccc3oc(CC(F)(F)F)nc3c2)c1Cl (stereo not shown) [Table 1 Compound 8]; 0 (represents less than 40% mortality)
CCOCN(C(=O)C(C)c1ccc2oc(CC(C)C)nc2c1)c1snc(C)c1Cl (stereo not shown) [Table 1 Compound 76]; 9 (9 indicates 80-100% mortality)
CCc1nsc(NC(=O)C(C)c2ccc3oc(CC(C)C)nc3c2)c1Cl (stereo not shown) [Table 1 Compound 86]; 9 (9 indicates 80-100% mortality)
CCc1nsc(NC(=O)C(F)c2ccc3oc(C(F)(F)C(F)(F)C(F)(F)F)nc3c2)c1Cl (stereo not shown) [Table 5 Compound 90]; 9 (9 indicates 80-100% mortality)
CCOCN(C(=O)C(C)c1ccc2oc(CC(C)(C)C)nc2c1)c1snc(CC)c1Cl (stereo not shown) [Table 1 Compound 157]; 0 (represents less than 40% mortality)
